Overview of reported % Viability at 1 μg/mL across a group of compounds:
Test system: Jurkat cells
Assay: (r) Cell cytotoxicity assay
Assay type: cell-based, human
Conditions: 1 μg/mL, 24 hours
Answer in %, number only, no unit symbol.

Examples with their reported % Viability at 1 μg/mL follow.
[[record]]
compound = "COc1cc(Nc2cc(Oc3ccc(NC(=O)Nc4cc(C(C)(C)C)cc(C(=O)NCCO)c4OC)c4ccccc34)ccn2)ccc1C(=O)NCCN1CC[S+]([O-])CC1"
reading = 95.4

[[record]]
compound = "COc1cc(Nc2cc(Oc3ccc(NC(=O)Nc4cc(C(C)(C)C)cc(NS(C)(=O)=O)c4OC)c4ccccc34)ccn2)ccc1C(=O)NCCN1CCN(C)CC1(C)C"
reading = 97.4

[[record]]
compound = "COc1c(NC(=O)Nc2ccc(Oc3ccnc(Nc4ccc(C(=O)O)c(N(C)C)c4)n3)c3ccccc23)cc(C(C)(C)C)cc1NS(C)(=O)=O"
reading = 93.9

[[record]]
compound = "COc1cc(Nc2cc(Oc3ccc(NC(=O)Nc4cc(C(C)(C)C)cc(NS(C)(=O)=O)c4OC)c4ccccc34)ccn2)cc(OC)c1C(=O)NCCOCCOCCOP(=O)(O)O"
reading = 91.2

[[record]]
compound = "COc1cc(Nc2cc(Oc3ccc(NC(=O)Nc4cc(C(C)(C)C)cc(NS(C)(=O)=O)c4OC)c4ccccc34)ccn2)ccc1S(=O)(=O)CC(CO)(CO)CO"
reading = 97.7

[[record]]
compound = "COc1cc(Nc2cc(Oc3ccc(NC(=O)Nc4cc(C(C)(C)C)cc(NS(C)(=O)=O)c4OC)c4ccccc34)ccn2)ccc1C(=O)NCCN1CCN(C(=O)CC[C@H](N)C(=O)O)CC1"
reading = 93.6


Entry under test: COc1cc(Nc2cc(Oc3ccc(NC(=O)Nc4cc(C(C)(C)C)cc(NS(C)(=O)=O)c4OC)c4ccccc34)ccn2)ccc1S(=O)(=O)N(C)CCN1CCN(C)CC1 . Its % Viability at 1 μg/mL was 90.9

---

Assay: Pharmacokinetics and total colon distribution after oral administration
Assay type: in vivo
Conditions: male, C57BL/6, mouse, total colon; mice, Ex. 36 measured after oral 5 mg/kg of Ex. 47 (Na salt), 6 h; read-out: total colon level
measurement type: concentration at 6 h (ng/g)
Answer in ng/g, number only, no unit symbol.

Entry under test: COc1cc(Nc2cc(Oc3ccc(NC(=O)Nc4cc(C(C)(C)C)cc(NS(C)(=O)=O)c4OC)c4ccccc34)ccn2)cc(OC)c1C(=O)NCCOCCOCCO [Example 36] . Its concentration at 6 h was 380

---

Overview of reported % Viability at 5 μg/mL across a group of compounds:
Tested on: Jurkat cells
Assay: (r) Cell cytotoxicity assay
Format: cell-based, human
Settings: 5 μg/mL, 24 hours
Method: 1×10^5 Jurkat cells (immortalised human T lymphocytes) are added to the appropriate number of wells of a 96 well plate in 100 μL of media (RPMI supplemented with 10% foetal bovine serum). […] After 15 minutes, cells are analysed by flow cytometry (BD accuri) using the FL3 window. The % viability is calculated as the % of cells that are PI negative in the test wells normalised to the DMSO control.
Answer in %, number only, no unit symbol.

Examples with their reported % Viability at 5 μg/mL follow.
[[record]]
compound = "COc1cc(Nc2cc(Oc3ccc(NC(=O)Nc4cc(C(C)(C)C)cc(NS(C)(=O)=O)c4OC)c4ccccc34)ccn2)ccc1C(=O)NCCC1(O)CCN(C)CC1 [17(bg)]"
measurement_type = "% Viability at 5 μg/mL"
reading = 60.0

[[record]]
compound = "COc1c(NC(=O)Nc2ccc(Oc3ccnc(Nc4ccc(C(=O)NCCOCCOCCO)c(N(C)C)c4)c3)c3ccccc23)cc(C(C)(C)C)cc1NS(C)(=O)=O [17(bt)]"
measurement_type = "% Viability at 5 μg/mL"
reading = 39.9

[[record]]
compound = "COc1cc(Nc2cc(Oc3ccc(NC(=O)Nc4cc(C(C)(C)C)cc(NS(C)(=O)=O)c4OC)c4ccccc34)ccn2)ccc1C(=O)N[C@H]1C(O)O[C@H](CO)[C@@H](O)[C@@H]1O (stereo partly shown) [17(br)]"
measurement_type = "% Viability at 5 μg/mL"
reading = 90.7

[[record]]
compound = "COCCOCCOCCS(=O)(=O)c1ccc(Nc2cc(Oc3ccc(NC(=O)Nc4cc(C(C)(C)C)cc(NS(C)(=O)=O)c4OC)c4ccccc34)ccn2)cc1OC [Example 12]"
measurement_type = "% Viability at 5 μg/mL"
reading = 81.8

[[record]]
compound = "CCN1CCN(CCNC(=O)c2ccc(Nc3cc(Oc4ccc(NC(=O)Nc5cc(C(C)(C)C)cc(NS(C)(=O)=O)c5OC)c5ccccc45)ccn3)cc2OC)CC1 [17(be)]"
measurement_type = "% Viability at 5 μg/mL"
reading = 0.7

[[record]]
compound = "COc1cc(Nc2cc(Oc3ccc(NC(=O)Nc4cc(C(C)(C)C)cc(NS(C)(=O)=O)c4OC)c4ccccc34)ccn2)cc(OC)c1C(=O)NCCOCCOCCOP(=O)(O)O [Example 47]"
measurement_type = "% Viability at 5 μg/mL"
reading = 96.0

[[record]]
compound = "COc1cc(Nc2cc(Oc3ccc(NC(=O)Nc4cc(C(C)(C)C)cc(NS(C)(=O)=O)c4OC)c4ccccc34)ccn2)ccc1C(=O)NCCC1CCNCC1 [Example 27]"
measurement_type = "% Viability at 5 μg/mL"
reading = 94.9

[[record]]
compound = "COc1cc(Nc2cc(Oc3ccc(NC(=O)Nc4cc(C(C)(C)C)cc(NS(C)(=O)=O)c4OC)c4ccccc34)ccn2)cc(OC)c1C(=O)NC1CCN(C)CC1 [17(bz)]"
measurement_type = "% Viability at 5 μg/mL"
reading = 92.7


Entry under test: COc1cc(Nc2cc(Oc3ccc(NC(=O)Nc4cc(C(C)(C)C)cc(NS(C)(=O)=O)c4OC)c4ccccc34)ccn2)cc(OC)c1C(=O)NCCN1CCN(C)CC1 [Example 22] . Its % Viability at 5 μg/mL was 96.6

Entry under test: COc1cc(Nc2cc(Oc3ccc(NC(=O)Nc4cc(C(C)(C)C)cc(NS(C)(=O)=O)c4OC)c4ccccc34)ccn2)cc(OC)c1C(=O)NCCC1CCN(C)CC1 [17(at)] . Its % Viability at 5 μg/mL was 93.2

Entry under test: COc1cc(Nc2cc(Oc3ccc(NC(=O)Nc4cc(C(C)(C)C)cc(NS(C)(=O)=O)c4OC)c4ccccc34)ccn2)ccc1P(C)(=O)O [Example 44] . Its % Viability at 5 μg/mL was 90.1

Entry under test: COc1cc(Nc2nccc(Oc3ccc(NC(=O)Nc4cc(C(C)(C)C)cc(NS(C)(=O)=O)c4OC)c4ccccc34)n2)cc(OC)c1C(=O)NCCN1CCN(C)CC1 [17(az)] . Its % Viability at 5 μg/mL was 93.1
